# method summary: chemical genetic growth profiling, strain panel (AID 1159580);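 also: tested at 20 µM; growth read once vehicle control cultures reached saturation at 30 °C; 1 = growth at the plate median or of vehicle wells; lower values mean less growth of the strain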
# measurement parameters: S. cerevisiae deletion strains, growth OD, locus YEL061C, strain CIN8, stronger effect = lower value
Hit rate of the full screen: of about 5,500 compounds, about 2,000 (36%) were called active. About 18% were inconclusive and are not listed. The list shows a part of the results.
Items are presented alongside their recorded normalized growth.
reported property: normalized growth

INSERT INTO assay_data (chemical_string, reported_property, measured_number) VALUES
  ('COc1ccc(/C(C)=N\NC2=NCCCN2)cc1', 'normalized growth', 0.991),
  ('Cc1cc(C)c(C(=O)NCCNc2ccc(C(F)(F)F)cc2[N+](=O)[O-])c(C)c1', 'normalized growth', 0.862),
  ('CCN(CC)CCNC(=O)COc1ccc(OC)cc1', 'normalized growth', 1),
  ('CC(C)=CCC1=C(O)c2ccccc2C(=O)C1=O', 'normalized growth', 0.932),
  ('CC1(C)S[C@@H]2[C@H](NC(=O)COc3ccccc3)C(=O)N2[C@H]1C(=O)O', 'normalized growth', 1),
  ('CCOC(=O)CC1=Nn2c(nnc2-c2cc(Cl)cc(Cl)c2)SC1', 'normalized growth', 0.934),
  ('CC(C)(C)c1cc(C(C)(C)C)n(-c2ccc(N=Cc3cc(Br)cc(Br)c3O)cc2)n1', 'normalized growth', 0.152),
  ('COc1cc(NC(=O)Nc2ccc(OC(F)(F)F)cc2)cc(C(F)(F)F)c1', 'normalized growth', 0.961),
  ('O=c1nc(-c2ccccc2)nc(-c2ccccc2)[nH]1', 'normalized growth', 0.97),
  ('N#C/C(=C\Nc1ccc2c(c1)OCCO2)S(=O)(=O)c1ccc(C(F)(F)F)cn1', 'normalized growth', 0.974),
  ('O=C(NCCNc1ccc(C(F)(F)F)cc1[N+](=O)[O-])c1cccs1', 'normalized growth', 0.948);
